target: PAF specific receptor binding site on rabbit platelet plasma membranes (Oryctolagus cuniculus, UniProt G1TEI7); construct: 100 μg of the platelet plasma membrane suspension; from tissue; host or cells: rabbit platelet plasma membranes; test: Inhibition of 3H-PAF binding to rabbit platelet plasma membrane; settings: 1 h; dose 5 (μm)
Sequence (G1TEI7 1-342): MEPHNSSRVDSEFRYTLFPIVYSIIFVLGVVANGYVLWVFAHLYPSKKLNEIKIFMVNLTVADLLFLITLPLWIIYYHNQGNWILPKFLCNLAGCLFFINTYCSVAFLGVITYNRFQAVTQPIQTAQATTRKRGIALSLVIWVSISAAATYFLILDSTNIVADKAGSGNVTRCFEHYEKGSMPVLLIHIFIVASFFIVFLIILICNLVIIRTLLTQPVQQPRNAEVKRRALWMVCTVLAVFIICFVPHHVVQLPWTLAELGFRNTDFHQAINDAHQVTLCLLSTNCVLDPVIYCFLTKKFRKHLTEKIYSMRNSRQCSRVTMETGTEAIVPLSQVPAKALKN
measured_attribute: inhibition at 5 µM
Answer with the number, then the unit.

The cases that follow already have their inhibition at 5 µM on record.
{"columns": ["compound", "inhibition at 5 µM"],
 "data": [
  ["C[C@@H]1[C@@H](C)[C@H](c2ccccc2)O[C@@H]1c1ccccc1 (relative stereo) [R=CH3; R1=CH3; Ar=phenyl; Ar1=phenyl; isomer (1)]", "13%"],
  ["COc1cc([C@H]2O[C@@H](c3cc(OC)c(OC)c(OC)c3)[C@@H](C)[C@H]2C)cc(OC)c1OC [R=CH3; R1=CH3; Ar=3,4,5-trimethoxyphenyl; Ar1=Same as Ar; isomer (4)]", "48%"],
  ["COc1cc([C@@H]2O[C@@H](c3cc(OC)c(OC)c(OC)c3)[C@H](C)[C@H]2C)cc(OC)c1OC (relative stereo) [R=CH3; R1=CH3; Ar=3,4,5-trimethoxyphenyl; Ar1=Same as Ar; isomer (2)]", "39%"],
  ["COc1cc([C@H]2O[C@@H](c3cc(OC)c(OC)c(OC)c3)[C@H](C)[C@H]2C)cc(OC)c1OC (relative stereo) [R=CH3; R1=CH3; Ar=3,4,5-trimethoxyphenyl; Ar1=Same as Ar; isomer (1)]", "61%"]
]}

Now let's try a different one.
// recorded inhibition at 5 µM for COC[C@H]1[C@@H](C)[C@@H](c2ccc(OC)c(OC)c2)O[C@H]1c1ccc(OC)c(OC)c1 (relative stereo) [R=CH3; R1=CH2OCH3; Ar=3,4-dimethoxyphenyl; Ar1=Same as Ar; isomer (4)] : 62%

All figures here come from patent US4595693A.
